Entry source: ChEMBL document CHEMBL1131909

target: Mu-type opioid receptor (Cavia porcellus); test: Compound was tested for its ability to activate mu opioid receptor in GPI bioassay
Sequence (P97266 whole entry): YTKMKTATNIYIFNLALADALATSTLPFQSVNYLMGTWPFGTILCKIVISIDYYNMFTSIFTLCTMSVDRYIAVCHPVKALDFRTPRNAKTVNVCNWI
Measured parameter: pIC50
Remember, pIC50 is on a log scale: it is -log10 of the molar concentration.

Any idea what pIC50 came out for CC1(C)SSC[C@@H](NC(=O)[C@@H](N)Cc2ccccc2)C(=O)N[C@@H](Cc2ccccc2)C(=O)N[C@H]1C(N)=O on Mu-type opioid receptor (Cavia porcellus)? 8.04

* * *

target: Delta-type opioid receptor (Mus musculus); assay: In vitro delta opioid activity was determined by its ability to inhibit the electrically induced contractions of smooth muscle preparations in mouse vas deferens (MVD)
Sequence (P32300 whole entry): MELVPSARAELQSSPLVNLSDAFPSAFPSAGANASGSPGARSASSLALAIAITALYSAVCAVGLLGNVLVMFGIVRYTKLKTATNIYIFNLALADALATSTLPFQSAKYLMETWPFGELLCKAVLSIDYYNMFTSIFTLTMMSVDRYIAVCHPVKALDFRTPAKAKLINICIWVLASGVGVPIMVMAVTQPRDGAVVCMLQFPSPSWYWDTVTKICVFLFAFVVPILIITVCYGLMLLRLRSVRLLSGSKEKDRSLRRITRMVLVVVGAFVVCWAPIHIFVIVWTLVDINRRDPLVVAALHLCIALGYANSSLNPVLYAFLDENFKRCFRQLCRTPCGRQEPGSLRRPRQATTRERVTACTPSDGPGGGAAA
pIC50: −log10 of the molar value.
// label = 1 (yes) if pIC50 is not less than 7, otherwise 0 (no)

Please review the following examples before continuing.
State whether the measured pIC50 reaches 7, counting equality as reaching it, for CC1NC(=O)[C@H](Cc2ccccc2)NC(=O)[C@H](NC(=O)[C@@H](N)Cc2ccc(O)cc2)CCCCNC1=O (single isomer, unassigned) 1 (yes)

Now try N[C@@H](Cc1ccccc1)C(=O)N[C@@H]1CCCCNC(=O)[C@H](Cc2cc3ccccc3[nH]2)NC(=O)[C@H](Cc2ccc(O)cc2)NC1=O . 0 (no)

What do you get for CC1NC(=O)[C@H](Cc2ccc(O)cc2)NC(=O)[C@H](NC(=O)[C@@H](N)Cc2ccccc2)CCCCNC1=O (single isomer, unassigned) ? 0 (no)

How about this compound: N[C@H](Cc1ccccc1)C(=O)N[C@@H]1CCCCNC(=O)[C@H](Cc2cc3ccccc3[nH]2)NC(=O)[C@H](Cc2ccc(O)cc2)NC1=O 0 (no)

Moving on to the next compound.
Check if pIC50 >= 7 (inclusive). Item: CC1NC(=O)[C@H](Cc2ccc(O)cc2)NC(=O)[C@H](NC(=O)[C@H](N)Cc2ccccc2)CCCCNC1=O (single isomer, unassigned) 0 (no)

* * *

target: Mu-type opioid receptor (Homo sapiens); test: Compound was tested for binding affinity against mu opioid receptor binding assay
Sequence (P35372 whole entry): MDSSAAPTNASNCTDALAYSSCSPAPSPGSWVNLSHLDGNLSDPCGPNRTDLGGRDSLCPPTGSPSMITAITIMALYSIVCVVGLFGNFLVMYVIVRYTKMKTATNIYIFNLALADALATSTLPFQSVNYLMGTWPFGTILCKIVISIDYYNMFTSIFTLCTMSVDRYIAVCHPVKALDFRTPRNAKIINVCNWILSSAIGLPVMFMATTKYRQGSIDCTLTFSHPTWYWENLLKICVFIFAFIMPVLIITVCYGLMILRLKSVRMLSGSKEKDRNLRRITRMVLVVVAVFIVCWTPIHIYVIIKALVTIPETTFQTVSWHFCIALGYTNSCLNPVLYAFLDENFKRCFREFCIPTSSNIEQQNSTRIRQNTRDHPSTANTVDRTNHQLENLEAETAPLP
Measured Ki values are reported for all entries that follow.

For the molecule CC1(C)SSC[C@@H](NC(=O)[C@@H](N)Cc2ccccc2)C(=O)N[C@@H](Cc2ccccc2)C(=O)N[C@H]1C(N)=O , what Ki is on record? 13.6 nM

Proceeding to the next molecule to report its Ki.
Look at this molecule and give its reported Ki. CC1(C)SSC[C@@H](NC(=O)[C@@H](N)Cc2ccc(O)cc2)C(=O)N[C@@H](Cc2ccccc2)C(=O)N[C@H]1C(N)=O 0.29 nM
